Target: T1, collagenase 1 (UniProt P03956 100-469, limits assumed)
T1 sequence (looked up): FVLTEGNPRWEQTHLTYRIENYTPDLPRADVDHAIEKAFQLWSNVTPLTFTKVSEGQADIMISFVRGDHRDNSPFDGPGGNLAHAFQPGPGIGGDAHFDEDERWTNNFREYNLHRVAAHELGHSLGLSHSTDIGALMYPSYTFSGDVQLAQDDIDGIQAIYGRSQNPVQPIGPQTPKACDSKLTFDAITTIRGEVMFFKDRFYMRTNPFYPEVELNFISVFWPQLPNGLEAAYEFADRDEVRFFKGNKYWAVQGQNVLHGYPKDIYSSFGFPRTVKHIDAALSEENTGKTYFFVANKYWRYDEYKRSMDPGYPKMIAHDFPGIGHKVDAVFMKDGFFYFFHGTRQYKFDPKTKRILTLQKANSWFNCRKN
Assay: cell-based or functional assay
*1 amine or outer side, *2 acyl side, *3 side chain or, on linkers, in order; H or OH if unused. [ ]: non-standard residue; d: D form. The star is where a group is joined. Dnp = O=[N+]([O-])c1ccc(*)c([N+](=O)[O-])c1; C(Me) = CSC[C@H](N[*:1])C(=O)[*:2]
Range-based classes on measured Selectivity v. Coll-3: low value: < 200 unitless; medium value: ≥ 200 unitless and < 500 unitless; high value: ≥ 500 unitless

binder="Dnp-GPFGLKG-NH2 (SMILES CC(C)C[C@H](NC(=O)CNC(=O)[C@H](Cc1ccccc1)NC(=O)[C@@H]1CCCN1C(=O)CNc1ccc([N+](=O)[O-])cc1[N+](=O)[O-])C(=O)N[C@@H](CCCCN)C(=O)NCC(N)=O) [Dnp-GPFGLKG-NH2]" assigned_category="medium value"

INPUT: Class label required: Dnp-GPLQFRG-NH2 (SMILES CC(C)C[C@H](NC(=O)[C@@H]1CCCN1C(=O)CNc1ccc([N+](=O)[O-])cc1[N+](=O)[O-])C(=O)N[C@@H](CCC(N)=O)C(=O)N[C@@H](Cc1ccccc1)C(=O)N[C@@H](CCCNC(=N)N)C(=O)NCC(N)=O) [Dnp-GPLQFRG-NH2]
OUTPUT: high value

INPUT: Which of the defined bands does the recorded Selectivity v. Coll-3 of Dnp-GPAPLHG[C(Me)]-NH2 (SMILES CSC[C@H](NC(=O)CNC(=O)[C@H](Cc1c[nH]cn1)NC(=O)[C@H](CC(C)C)NC(=O)[C@@H]1CCCN1C(=O)[C@H](C)NC(=O)[C@@H]1CCCN1C(=O)CNc1ccc([N+](=O)[O-])cc1[N+](=O)[O-])C(N)=O) [Dnp-GPAPLHGC(Me)-NH2] sit within?
OUTPUT: medium value

INPUT: Determine which band this binder sits in: Dnp-PHPFRG-NH2 (SMILES N=C(N)NCCC[C@H](NC(=O)[C@H](Cc1ccccc1)NC(=O)[C@@H]1CCCN1C(=O)[C@H](Cc1c[nH]cn1)NC(=O)[C@@H]1CCCN1c1ccc([N+](=O)[O-])cc1[N+](=O)[O-])C(=O)NCC(N)=O) [Dnp-PHPFRG-NH2]
OUTPUT: high value

INPUT: # classify by Selectivity v. Coll-3 band: Dnp-GPVNLHGR[C(Me)]-NH2 (SMILES CSC[C@H](NC(=O)[C@H](CCCNC(=N)N)NC(=O)CNC(=O)[C@H](Cc1c[nH]cn1)NC(=O)[C@H](CC(C)C)NC(=O)[C@H](CC(N)=O)NC(=O)[C@@H](NC(=O)[C@@H]1CCCN1C(=O)CNc1ccc([N+](=O)[O-])cc1[N+](=O)[O-])C(C)C)C(N)=O) [Dnp-…(Me)-NH2]
OUTPUT: high value

INPUT: Lab note: sort Dnp-GPLSIQD-NH2 (SMILES CC[C@H](C)[C@H](NC(=O)[C@H](CO)NC(=O)[C@H](CC(C)C)NC(=O)[C@@H]1CCCN1C(=O)CNc1ccc([N+](=O)[O-])cc1[N+](=O)[O-])C(=O)N[C@@H](CCC(N)=O)C(=O)N[C@@H](CC(=O)O)C(N)=O) [Dnp-GPLSIQD-NH2] into the matching Selectivity v. Coll-3 band.
OUTPUT: low value

INPUT: Which class is correct for the following binder? Dnp-GPSPLHG[C(Me)]-NH2 (SMILES CSC[C@H](NC(=O)CNC(=O)[C@H](Cc1c[nH]cn1)NC(=O)[C@H](CC(C)C)NC(=O)[C@@H]1CCCN1C(=O)[C@H](CO)NC(=O)[C@@H]1CCCN1C(=O)CNc1ccc([N+](=O)[O-])cc1[N+](=O)[O-])C(N)=O) [Dnp-GPSPLHGC(Me)-NH2]
OUTPUT: medium value

INPUT: Sort Dnp-DEGPMGLK[C(Me)]YLG-NH2 (SMILES CSCC[C@H](NC(=O)[C@@H]1CCCN1C(=O)CNC(=O)[C@H](CCC(=O)O)NC(=O)[C@H](CC(=O)O)Nc1ccc([N+](=O)[O-])cc1[N+](=O)[O-])C(=O)NCC(=O)N[C@@H](CC(C)C)C(=O)N[C@@H](CCCCN)C(=O)N[C@@H](CSC)C(=O)N[C@@H](Cc1ccc(O)cc1)C(=O)N[C@@H](CC(C)C)C(=O)NCC(N)=O) [Dnp-…(Me)YLG-NH2] into one of the categories.
OUTPUT: medium value

INPUT: Lab log: Dnp-VTPYNMRG-NH2 (SMILES CSCC[C@H](NC(=O)[C@H](CC(N)=O)NC(=O)[C@H](Cc1ccc(O)cc1)NC(=O)[C@@H]1CCCN1C(=O)[C@@H](NC(=O)[C@@H](Nc1ccc([N+](=O)[O-])cc1[N+](=O)[O-])C(C)C)[C@@H](C)O)C(=O)N[C@@H](CCCNC(=N)N)C(=O)NCC(N)=O) [Dnp-VTPYNMRG-NH2] — assign Selectivity v. Coll-3 category
OUTPUT: low value

INPUT: Band assignment needed for Dnp-PINLHG-NH2 (SMILES CC[C@H](C)[C@H](NC(=O)[C@@H]1CCCN1c1ccc([N+](=O)[O-])cc1[N+](=O)[O-])C(=O)N[C@@H](CC(N)=O)C(=O)N[C@@H](CC(C)C)C(=O)N[C@@H](Cc1c[nH]cn1)C(=O)NCC(N)=O) [Dnp-PINLHG-NH2] please.
OUTPUT: low value
